Test system: Brewer's yeast induced pyrexia
method.summary: Antipyretic action: Brewer's yeast induced pyrexia (Bianchi)
Format: in vivo, rat
recorded.conditions: pyretic rat; read-out: 50% effective dose
Source text: Antipyretic action was established on the pyretic rat by the Bianchi method. In all cases the products of the invention are compared to the following reference substances, aspirin, phenylbutazone, indomethacine.
Task for the reader: assign each of the following compounds its reported ED50.
Report the figure in mg/kg without appending any unit label.

ED50 reported for this compound O=C(O)Cc1c(-c2ccccc2)c(-c2ccccc2)nn1Cc1ccccc1 : 1

In plain terms, CC(C)Cn1nc(-c2ccccc2)c(-c2ccccc2)c1CC(=O)O has a documented ED50 of 0.5

ED50 reported for this compound O=C(O)Cc1c(-c2ccccc2)c(-c2ccccc2)nn1-c1ccccc1 : 0.6

Lab book: ED50 of CCCCC1C(=O)N(c2ccccc2)N(c2ccccc2)C1=O [PHENYLBUTAZONE, phenylbutazone, reference compound] noted as 10

====

Tested on: Cotton pellet granulema
method.summary: Anti-inflammatory action: cotton pellet granuloma (Winter)
Format: in vivo, rat
recorded.conditions: rat; oral administration; sub-cutaneous implantation of cotton pellets; read-out: 50% effective dose
Text: In all cases the products of the invention are compared to the following reference substances, aspirin, phenylbutazone, indomethacine.
For each of the molecules below, state its ED50.
Answer format: numeric, mg/kg implied, no suffix.

Sample CC(C)Cn1nc(-c2ccccc2)c(-c2ccccc2)c1CC(=O)O [Example 3] ; ED50 observed: 18

ED50 in this record for CCCCC1C(=O)N(c2ccccc2)N(c2ccccc2)C1=O [PHENYLBUTAZONE, phenylbutazone, reference compound] : 200

Record O=C(O)Cc1c(-c2ccccc2)c(-c2ccccc2)nn1Cc1ccccc1 [Example 1] , field ED50: 80

Lab note: measured ED50 of O=C(O)Cc1c(-c2ccccc2)c(-c2ccccc2)nn1-c1ccccc1 [Example 5, 1,3,4-triphenylpyrazolyl-5-acetic acid] was 6
